tested on: Rattus norvegicus; test: In vivo sterol lowering activity at dose of 0.10 % of the diet; assay type: functional
For each record, write down the corresponding serum sterol level, percent of control.

query: What value of serum sterol level, percent of control has been reported for the following compound? CCCCCCCCCCCCCCCCNc1ccc(C#N)cc1.Cl
result: 100%

query: Please answer likewise for CCCCCCCCCCCCCCCCNc1ccc(C(=O)CC(=O)OCC)cc1
result: <85%

query: Please answer likewise for CCCCCCCCCCCCCCCCNc1ccc(C(=O)NS(=O)(=O)c2ccc([N+](=O)[O-])cc2)cc1
result: <82%

###

tested on: Rattus norvegicus; experiment: In vivo sterol lowering activity at dose of 0.10 % of the diet; type: functional
measured_metric: serum sterol level, percent of control

query: What value of serum sterol level, percent of control has been reported for the following compound? CCCCCCCCCCCCCCCCNc1ccc(C(=O)[N-]S(=O)(=O)c2ccc(C)cc2)cc1.[Na+]
result: <48%

query: Please answer likewise for CCCCCCCCCCCCCCCCNc1ccc(C(=O)CC(=O)C(=O)OC)cc1
result: 85%

query: Please answer likewise for CCCCCCCCCCCCCCCCNc1ccc(C(=O)N2CCCCC2)cc1
result: 83%

query: Please answer likewise for CCCCCCCCCCCCCCCCN(CCCCCCCCCCCCCCCC)c1ccc(CCCC(=O)OCC)cc1
result: 103%

query: Please answer likewise for CCCCCCCCCCCCCCCCN(CCCCCCCCCCCCCCCC)c1ccc(C(=O)O)c2ccccc12
result: 101%

query: Please answer likewise for CCCCCCCCCCCCCCCCNC1CCC(C(=O)O)CC1 (stereo not given)
result: <75%

query: Please answer likewise for CCCCCCCCCCCCCCCCN(C)c1ccc(C(=O)OCC(O)CO)cc1 (stereo not given)
result: 99%

query: Please answer likewise for CCCCCCCCCCCCCCCCNc1ccc(C(=O)OCC(O)COC(=O)c2cccnc2)cc1 (stereo not given)
result: 84%

query: Please answer likewise for CCCCCCCCCCCCCCCCNc1ccc(/C=N\N=C(\N)NCc2ccccc2)cc1
result: 94%

query: Please answer likewise for CCCCCCCCCCCCCCCCNc1ccc(C(=O)NS(=O)(=O)c2ccc(N)cc2)cc1
result: 105%

###

target: UniProt:O70536; assay: In vitro inhibition of acyl coenzyme A:cholesterol acyltransferase; parameters: concentration or dose not given beside the values; details: concentration not given here
measured_metric: inhibition (%)
Just the number please, in %, no unit attached.

query: Please tell me: inhibition of CCCCCCCCCCCCCCCCNc1ccc(C(SCC)SCC)cc1 , system UniProt:O70536?
result: 0

query: Please answer likewise for CCCCCCCCCCCCCCCCN(CCCCCCCCCCCCCCCC)c1ccc(CCC(=O)OCC)cc1
result: 28

query: Please answer likewise for CCCCCCCCCCCCCCCCNc1ccc(C(O)C(N)=O)cc1 (centres undefined)
result: 34

query: Please answer likewise for CCCCCCCCCCCCCCCCN(C)c1ccc(C(=O)OCC(O)CO)cc1 (centres undefined)
result: 0

query: Please answer likewise for CCCCCCCCCCCCCCCCNc1ccc(C(=O)OCC(O)CO)cc1 (centres undefined)
result: 0

query: Please answer likewise for CCCCCCCCCCCCCCCCNc1ccc(C(=O)OCC(O)COCC)cc1 (centres undefined)
result: 9

query: Please answer likewise for CCCCCCCCCCCCCCCCNc1ccc(C(=O)CO)cc1
result: 20

query: Please answer likewise for CCCCCCCCCCCCCCCCNc1ccc(C(=O)OCC)cc1F
result: 5

query: Please answer likewise for CCCCCCCCCCCCCCCCNc1ccc(CCC(=O)O)cc1
result: 50

query: Please answer likewise for CCCCCCCCCCCCCCCCNc1ccc(C(=O)NCC(=O)OCC)cc1
result: 16

query: Please answer likewise for CCCCCCCCCCCCCCCCNc1ccc(C(=O)OCC(COC(=O)c2ccc(NCCCCCCCCCCCCCCCC)cc2)OC(C)=O)cc1
result: 2

query: Please answer likewise for CCCCCCCCCCCCCCCCNc1ccc(C(=O)OC2CCCCCC2)cc1
result: 0

query: Please answer likewise for CCCCCCCCCCCCCCCCN(C(C)=O)c1ccc(C(=O)OCC(O)CO)cc1 (centres undefined)
result: 0

query: Please answer likewise for CCCCCCCCCCCCCCCCNc1ccc(C(=O)CC(=O)OCC)cc1
result: 2

query: Please answer likewise for CCCCCCCCCCCCCCCCNc1ccc(CCCC(=O)OCC)cc1
result: 0

query: Please answer likewise for CCCCCCCCCCCCCCCCNc1ccc(C(=O)OCC(O)COC)cc1 (centres undefined)
result: 0

query: Please answer likewise for CCCCCCCCCCCCCCCCN(CC(=O)OCC)c1ccc(C(=O)OC)cc1
result: 12

query: Please answer likewise for CCCCCCCCCCCCCCCCNc1ccc(C(=O)OCC(COC(=O)CCCCCCCCCCCCCCC)OC(=O)CCCCCCCCCCCCCCC)cc1 (centres undefined)
result: 4

query: Please answer likewise for CCCCCCCCCCCCCCCCNc1ccc(C(=O)N(C)C)cc1
result: 48

query: Please answer likewise for CCCCCCCCCCCCCCNc1ccc(C(=O)OCC(O)CO)cc1 (centres undefined)
result: 27

query: Please answer likewise for CCCCCCCCCCCCCCCCNc1ccc(C(=O)NCCC(=O)O)cc1
result: 49

query: Please answer likewise for CCCCCCCCCCCCCCCCNc1cc(C(=O)[O-])cc(C(=O)[O-])c1.[Na+].[Na+]
result: 0

query: Please answer likewise for CCCCCCCCCCCCCCCCNc1ccc(C2=NCCO2)cc1
result: 0

query: Please answer likewise for CCCCCCCCCCCCCCCCNc1ccc(C(=O)C[S+](C)[O-])cc1 (centres undefined)
result: 6

query: Please answer likewise for CCCCCCCCCCCCCCCCN(C(C)=O)c1ccc(C(=O)OCC(O)COC(C)=O)cc1 (centres undefined)
result: 4

query: Please answer likewise for CCCCCCCCCCCCCCCCNc1ccc(/C=N\N=C(\N)NCc2ccccc2)cc1
result: 0

query: Please answer likewise for CCCCCCCCCCCCCCCCNc1cc(C(=O)OC)cc(C(=O)OC)c1
result: 6

query: Please answer likewise for CCCCCCCCCCCCCCCCNc1ccc(C(=O)SCC(O)CO)cc1 (centres undefined)
result: 3

query: Please answer likewise for CCCCCCCCCCCCCCCCN(C=O)c1ccc(C(=O)O)cc1
result: 12

query: Please answer likewise for CCCCCCCCCCCCCCCCNc1ccc(C(=O)NC(=O)c2ccccc2)cc1
result: 0

query: Please answer likewise for CCCCCCCCCCCCCCCCNc1ccc(C(=O)OCC(C)(C)CO)cc1
result: 13

query: Please answer likewise for CCCCCCCCCCCCCCCCN(C=O)c1ccc(C(=O)OCC)cc1
result: 9

###

molecular target: Sterol O-acyltransferase 1 (Rattus norvegicus) (UniProt O70536); assay: In vitro inhibition of acyl coenzyme A:cholesterol acyltransferase; set-up: concentration or dose not given beside the values; conditions: concentration not given here
measured_metric: inhibition (%)
Just the number please, in %, no unit attached.

query: What value of inhibition has been reported for the following molecule? CCCCCCCCCCCCCCCCNc1csc(C(=O)O)c1
result: 70

query: Please answer likewise for CCCCCCCCCCCCCCCCNc1ccc(C(=O)OCC2COC(C)(C)O2)cc1 (stereo unspecified)
result: 0

query: Please answer likewise for CCCCCCCCCCCCCCCCNc1ccc(C(=O)O)c(F)c1
result: 57

query: Please answer likewise for CCCCCCCCCCCCCCCCN(C(=O)C(F)(F)F)c1ccc(C(=O)NO)cc1
result: 0

query: Please answer likewise for CCCCCCCCCCCCCCCCNc1ccc(C(=O)O)c(OCCCCCCCCCCCCCCCC)c1
result: 6

###

Target: Sterol O-acyltransferase 1 (Rattus norvegicus)
Sequence (whole entry): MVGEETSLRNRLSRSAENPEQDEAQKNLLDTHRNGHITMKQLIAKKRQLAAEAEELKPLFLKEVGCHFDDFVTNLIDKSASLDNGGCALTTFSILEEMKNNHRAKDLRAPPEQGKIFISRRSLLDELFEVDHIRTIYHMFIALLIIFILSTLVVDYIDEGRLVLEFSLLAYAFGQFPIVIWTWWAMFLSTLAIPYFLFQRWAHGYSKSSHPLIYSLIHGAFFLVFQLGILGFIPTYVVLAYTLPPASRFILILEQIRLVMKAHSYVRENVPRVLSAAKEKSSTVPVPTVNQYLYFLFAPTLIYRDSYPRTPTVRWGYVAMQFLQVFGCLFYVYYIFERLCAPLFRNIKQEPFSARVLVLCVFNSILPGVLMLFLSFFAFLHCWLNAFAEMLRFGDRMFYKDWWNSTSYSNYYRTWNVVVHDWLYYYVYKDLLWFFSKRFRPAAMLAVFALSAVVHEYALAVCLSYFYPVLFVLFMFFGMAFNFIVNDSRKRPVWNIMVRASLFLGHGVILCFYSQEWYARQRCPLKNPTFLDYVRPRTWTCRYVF
Assay: In vitro inhibition of acyl coenzyme A:cholesterol acyltransferase
Parameters: concentration or dose not given beside the values
Conditions: concentration not given here
Threshold rule: inhibition greater than or equal to 10% is yes; below that, no.

query: Dear colleague, could you confirm whether CCCCCCCCCCCCCCCCNc1ccc(C(=O)NC(C)C(=O)O)cc1 (centres undefined) has inhibition at or above 10%?
result: yes

query: Please answer likewise for CCCCCCCCCCCCCCCCN(C(=O)CCCCCCCCCCCCCCC)c1ccc(C(=O)OCC(O)CO)cc1 (centres undefined)
result: yes

query: Please answer likewise for CCCCCCCCCCCCCCCCNc1ccc(C(=O)OCCCO)cc1
result: yes

query: Please answer likewise for CCCCCCCCCCCCCCCCNc1ccc(CCC(=O)OCC)cc1
result: no

query: Please answer likewise for CCCCCCCCCCCCCCCCNc1ccc(C(=O)Nc2ccc(C(=O)O)cc2)cc1
result: yes

query: Please answer likewise for CCCCCCCCCCCCCCCCNc1ccc(C(=O)OC2CCCCO2)cc1 (centres undefined)
result: no

query: Please answer likewise for CCCCCCCCCCCCCCCCNc1ccc(C(=O)NC(C)(C)C(=O)O)cc1
result: yes

query: Please answer likewise for CCCCCCCCCCCCCCCCNc1ccc(C(=O)OCC(CO)OC(C)=O)cc1 (centres undefined)
result: yes

query: Please answer likewise for CCCCCCCCCCCCCCCCNc1ccc(C(=O)O)cc1C
result: no

query: Please answer likewise for CCCCCCCCCCCCCCCCNc1ncc(C(=O)OCC)cn1
result: yes

query: Please answer likewise for CCCCCCCCCCCCCCCCNc1ccc(C(=O)Oc2ccc(Cl)cc2)cc1
result: no

query: Please answer likewise for CCCCCCCCCCCCCCCCNc1ccc(C(=O)NS(=O)(=O)c2ccc(N)cc2)cc1
result: yes

query: Please answer likewise for CCCCCCCCCCCCCCCCNc1ccc(C(=O)NS(C)(=O)=O)cc1
result: yes

query: Please answer likewise for CCCCCCCCCCCCCCCCNc1ccc(C(=O)C(C)(C)C(=O)OCC)cc1
result: no

query: Please answer likewise for CCCCCCCCCCCCCCCCNc1ccc(C(=O)OCC(=O)OCC)cc1
result: yes

query: Please answer likewise for CCCCCCCCCCCCCCCCNc1ccc(C(=O)C(C(=O)OCC)C(=O)OCC)cc1
result: no

query: Please answer likewise for CCCCCCCCCCCCCCCCNc1ccc(C(=O)NNC(C)=O)cc1
result: yes

query: Please answer likewise for CCCCCCCCCCCCCCCCNc1ccc(C(=O)O)c(O)c1
result: yes

query: Please answer likewise for CCCCCCCCCCCCCCCCN(C(C)=O)c1ccc(C(=O)OCC(COC(C)=O)OC(C)=O)cc1 (centres undefined)
result: yes

query: Please answer likewise for CCCCCCCCCCCCCCCCNc1ccc(C(C)=O)cc1
result: yes

query: Please answer likewise for CCCCCCCCCCCCCCCCN(CCCCCCCCCCCCCCCC)c1ccc(CCCC(=O)OCC)cc1
result: yes

query: Please answer likewise for CCCCCCCCCCCCCCCCNc1ccc(C(=O)[O-])c(C(=O)[O-])c1.[Na+].[Na+]
result: yes

query: Please answer likewise for CCCCCCCCCCCCCCCCNc1ccc(C(=O)C(C)C(=O)OCC)cc1 (centres undefined)
result: yes

query: Please answer likewise for CCCCCCCCCCCCCCCCNc1ccc(C(=O)OC)c(C)c1
result: no
